MEASUREMENT TARGET: CAAX farnesyltransferase (Rattus norvegicus, UniProt Q02293+Q04631)
Sequence (Q02293 whole entry, one chain of several): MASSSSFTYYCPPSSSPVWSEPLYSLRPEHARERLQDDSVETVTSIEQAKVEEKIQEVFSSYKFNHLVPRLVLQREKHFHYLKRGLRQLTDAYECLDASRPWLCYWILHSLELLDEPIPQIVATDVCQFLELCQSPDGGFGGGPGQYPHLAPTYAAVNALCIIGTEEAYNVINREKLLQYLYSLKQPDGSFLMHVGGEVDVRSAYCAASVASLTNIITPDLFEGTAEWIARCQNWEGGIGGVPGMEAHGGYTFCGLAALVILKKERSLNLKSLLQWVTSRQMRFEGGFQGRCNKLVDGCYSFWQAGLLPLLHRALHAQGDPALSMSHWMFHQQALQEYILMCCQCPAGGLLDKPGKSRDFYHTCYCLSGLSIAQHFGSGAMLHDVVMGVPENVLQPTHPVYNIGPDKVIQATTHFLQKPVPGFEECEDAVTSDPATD
PROTOCOL NOTES: In vitro inhibition of CAAX farnesyltransferase
Assay type: biochemical
Design: purified to homogeneity from rat brain homogenates; from tissue; host or cells: rat brain; alternatively recombinant enzyme from a baculovirus expression system
CONDITIONS: diastereomer A; Table D; read-out: EC50 (μM) "A"
One threshold, 0.7 µM, splits the recorded EC50 values: lower ones are 1, equal or higher ones are -1.

>  <MOLECULE>
CN(C(=O)[C@@H](N)CS)C1N=C(c2ccccc2)c2ccccc2N(CC(=O)N[C@@H](Cc2ccc(O)cc2)C(=O)O)C1=O (stereo partly drawn) [compound 54]

>  <CAT>
-1

$$$$

Q: Please let me know if CCOC(=O)[C@H](CCSC)NC(=O)CN1C(=O)C(N(C)C(=O)C2CSC(C)N2)N=C(c2ccccc2)c2ccccc21 (stereo partly drawn) [compound 109] shows EC50 below 0.7 µM.
Ans: -1

Q: Is 0.7 µM strictly greater than the molecule's reported EC50? molecule: CN(C(=O)[C@@H](N)CS)C1N=C(c2ccccc2)c2cc(Cl)ccc2N(CC(=O)N[C@@H](Cc2ccccc2)C(=O)O)C1=O (stereo partly drawn) [compound 68]
Ans: 1

Q: Strictly below 0.7 µM: is that where EC50 of CN(C(=O)[C@@H](N)CS)C1N=C(c2ccccc2)c2ccccc2N(CC(=O)NCC(=O)O)C1=O (stereo partly drawn) [compound 53] sits?
Ans: -1

Q: Bench note: check whether CN(CC(=O)O)C(=O)CN1C(=O)C(N(C)C(=O)[C@@H](N)CS)N=C(c2ccccc2)c2ccccc21 (stereo partly drawn) [compound 65] shows EC50 below 0.7 µM
Ans: -1

Q: Problem: For the molecule CN(C(=O)[C@@H](N)CS)C1N=C(c2ccccc2)c2cc(Cl)ccc2N(Cc2ccc(C(F)(F)F)cc2)C1=O (stereo partly drawn) [compound 106] , is EC50 under 0.7 µM?
Ans: 1

Q: Is it true that EC50 reported for CN(C(=O)[C@@H](N)CS)C1N=C(c2ccccc2)c2ccccc2N(CC(=O)N[C@@H](CO)C(=O)O)C1=O (stereo partly drawn) [compound 30] is less than 0.7 µM?
Ans: -1

Q: Hello, I'm reviewing records and need to know if EC50 of COC(=O)[C@H](CCSC)NC(=O)CN1C(=O)C(N(C)C(=O)[C@@H](N)CS)N=C(c2ccccc2)c2ccccc21 (stereo partly drawn) [compound 37] is below 0.7 µM. Could you check?
Ans: 1

Q: Is EC50 strictly under 0.7 µM for the entry CSCC[C@H](NC(=O)CN1C(=O)C(N(C)C(=O)[C@@H](N)CSSC(C)(C)C)C=C(c2ccccc2F)c2cc(Cl)ccc21)C(=O)OC1CCCCC1 (stereo partly drawn) [compound 113] ?
Ans: -1

Q: Strictly below 0.7 µM: is that where EC50 of CSCC[C@@H](C(=O)O)N(C)C(=O)CN1C(=O)C(NC(=O)[C@@H](N)CS)N=C(c2ccccc2)c2ccccc21 (stereo partly drawn) [compound 63] sits?
Ans: -1

Q: Is EC50 strictly under 0.7 µM for the entry CSCC[C@H](NC(=O)CN1C(=O)C(NC(=O)[C@@H](N)CS)CCc2ccccc21)C(=O)O (stereo partly drawn) [compound 10] ?
Ans: -1

Q: Does CN(C(=O)[C@@H](N)CS)C1N=C(c2ccccc2)c2cc(Cl)ccc2N(CC(=O)N[C@@H](Cc2ccc(F)cc2)C(=O)O)C1=O (stereo partly drawn) [compound 70] have EC50 strictly under 0.7 µM?
Ans: 1
